Recorded values, source patent US8697883B2.

Recorded melting point values for a group of molecules are listed next.

Consider the worked cases shown below.
                                   molecule  endpoint_label  readout_value
0  CNC(=O)c1cc(COC(=O)N2C[C@H]3C[C@H](Oc4ccc(-c5ccc(F)cc5)cc4)C[C@H]3C2)on1   melting point  154 to 156 °C
1  CNC(=O)c1cc(COC(=O)N2C[C@H]3C[C@H](Oc4ccc(Cl)c5ccccc45)C[C@H]3C2)on1   melting point  131 to 133 °C
2  CCOc1ccc2ccc(OC3CC4CN(C(=O)OCc5nc(C(=O)NC)cs5)CC4C3)cc2c1 (centres unmarked)   melting point  149 to 151 °C
3  NC(=O)c1cc(COC(=O)N2C[C@H]3C[C@H](Oc4ccc(Cl)c(F)c4)C[C@H]3C2)on1   melting point  100 to 102 °C

Now look at this one.
Ask | Could you share which melting point value was measured for `O=C(OCc1csnn1)N1C[C@H]2C[C@H](Oc3ccc(Cl)cc3)C[C@H]2C1` ?
Reply | 122 to 124 °C
